Molecular target: T1, recombinant human GPA ectodomain (human, UniProt P02724 20-91)
T1 construct: also called recombinant hGPA ECD; recGPA
T1 sequence: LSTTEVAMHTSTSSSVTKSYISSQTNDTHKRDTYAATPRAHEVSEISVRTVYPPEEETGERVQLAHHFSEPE
Assay: ELISA, rec hGPA ectodomain
Below: a set of entries, each annotated with reported binding by ELISA relative to parental.

- BINDER: "TPP-5355 (Fab, V domains shown, also called VL: (F95Y)) VH: EVQLVQSGAEVKKPGASVKVSCKASGYTFTTYTIHWVRQAPGQGLEWIGYINPSSDYTRYNPKFKDRVTLTTDKSTSTAYMELRSLRSDDTAVYYCQTGTRDYWGQGTTVTVSS VL: DIQLTQSPSFLSASVGDRVTITCSAASSVSYIYWFQQKPGKAPKLLIYSTSTLPSGVPSRFSGSGSGTEYTLTISSLQPEDFATYYCHQRNSFPYTFGQGTKLEIKR"
  binding by ELISA relative to parental: 1.35
- BINDER: "TPP-5335 (Fab, V domains shown, also called VH: (Q97A)) VH: EVQLVQSGAEVKKPGASVKVSCKASGYTFTTYTIHWVRQAPGQGLEWIGYINPSSDYTRYNPKFKDRVTLTTDKSTSTAYMELRSLRSDDTAVYYCATGTRDYWGQGTTVTVSS VL: DIQLTQSPSFLSASVGDRVTITCSAASSVSYIYWFQQKPGKAPKLLIYSTSTLPSGVPSRFSGSGSGTEYTLTISSLQPEDFATYYCHQRNSFPFTFGQGTKLEIKR"
  binding by ELISA relative to parental: 0.83
